Reported AC50 by item:
Molecular target: human PAH with the R408W mutation (A375 R408W cells) (Homo sapiens, UniProt P00439, R408W)
Construct: expressed in transfected cells
Sequence (P00439 1-452 R408W): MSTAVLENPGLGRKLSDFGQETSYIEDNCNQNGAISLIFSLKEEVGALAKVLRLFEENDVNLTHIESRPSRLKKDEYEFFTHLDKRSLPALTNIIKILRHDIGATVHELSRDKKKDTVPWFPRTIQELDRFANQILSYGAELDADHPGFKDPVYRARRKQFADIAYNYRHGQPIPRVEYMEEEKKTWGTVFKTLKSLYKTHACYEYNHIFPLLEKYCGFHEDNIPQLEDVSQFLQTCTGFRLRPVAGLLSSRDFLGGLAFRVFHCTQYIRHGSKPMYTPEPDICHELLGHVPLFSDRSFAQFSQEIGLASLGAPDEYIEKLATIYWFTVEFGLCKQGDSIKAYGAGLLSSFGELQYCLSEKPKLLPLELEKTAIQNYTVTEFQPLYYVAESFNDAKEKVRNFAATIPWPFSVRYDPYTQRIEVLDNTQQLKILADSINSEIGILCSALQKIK
Assay: Cell Based Phenylalanine Flux Assay
Conditions: A375 R408W cells; 24 hrs with compound, then 20 μM sepiapterin and 800 μM 13C9,15N-Phenylalanine for 4 hours; 13C-Tyrosine by LC-MS; average where tested multiple times

Solved cases below.
# Compound Structure String, AC50
data = [
    ("O=C(c1nnc(-c2ccn(C(F)F)n2)o1)N1CCc2[nH]cnc2[C@H]1c1nc2cccc(F)c2o1", "≤ 500 nM"),
    ("Cc1ncoc1C(=O)N1Cc2[nH]cnc2[C@@H]1c1nc2ccccc2o1", "1000 to 5000 nM"),
    ("Cn1cncc1-c1nc(C(F)F)c(C(=O)N2CCc3[nH]cnc3[C@@H]2c2nc3cc(F)ccc3o2)o1", "1000 to 5000 nM"),
]

Now turn to the next compound.
Consider Cc1cccc2oc([C@H]3c4nc[nH]c4CCN3C(=O)c3cnc(C(C)(C)O)o3)nc12 . Its measured AC50 is 1000 to 5000 nM
